# Experimental Protocol: CREB reporter modulators without forskolin, primary screen, cell-based, PC12, CRE-LacZ reporter, unstimulated (AID 1145)
# Measurement Conditions: no forskolin, luminescence, 4.5 h, higher = more signal, called active from +8 up or from −8 down
Task for the reader: assign each of the following molecules its reported z-score.
Hey, just send me the number, nothing else.

// returns reported z-score for input C=C(COC)C(=O)CC[C@H](OC(=O)c1ccccc1-c1ccccc1C(=O)O)c1cccc(OCCO)c1
0.102

For CN(C)CCCC[C@@H]1NC(=O)[C@@H]2C[C@H](C(=O)O)[C@H](c3ccc(O)cc3)N2C1=O then?
0.415

For Cc1ccc(N2C(=O)c3ccccc3[C@@H](C(=O)NCc3ccccc3)[C@@H]2c2ccc(CO)cc2)nc1 then?
-0.0888

For CO[C@@H]1COC(=O)CC=C[C@@H](C)[C@H](OC)COC(=O)CC=C[C@H]1C then?
-0.658

For CCOC(=O)C1=CC[C@@H](c2ccccc2)N(S(=O)(=O)c2ccc(C)cc2)[C@H]1C then?
-0.0137

Source listed as PubChem BioAssay.
